molecular target: CXCR4 (Homo sapiens); construct: endogenous in cells; host or cells: MDA-MB-231; assay: Primary binding affinity screening (competition with biotinylated TN14003); details: effective concentration = lowest concentration with significant reduction of rhodamine fluorescence; MDA-MB-231 cells; tested at 1, 10, 100, 1000 nM
Sequence (P61073 whole entry): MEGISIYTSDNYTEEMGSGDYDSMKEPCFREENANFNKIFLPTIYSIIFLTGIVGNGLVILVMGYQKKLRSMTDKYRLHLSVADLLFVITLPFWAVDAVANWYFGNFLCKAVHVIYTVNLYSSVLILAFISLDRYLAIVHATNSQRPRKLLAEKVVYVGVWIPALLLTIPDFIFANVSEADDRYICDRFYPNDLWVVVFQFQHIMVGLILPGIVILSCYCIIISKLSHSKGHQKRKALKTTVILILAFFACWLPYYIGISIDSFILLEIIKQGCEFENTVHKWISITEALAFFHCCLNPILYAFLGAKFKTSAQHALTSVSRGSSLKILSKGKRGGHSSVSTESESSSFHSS
Please provide measured EC for the entries that follow.
Numbers only, in nM.

Here's what some known entries look like.
CN(Cc1ccc(CN(C)c2ccccc2)cc1)c1ccccc1 [Id] = 1000
CN(Cc1ccc(F)cc1)Cc1cccc(CN(C)Cc2ccc(F)cc2)n1 [IIj] = 1000

# batch size: 2; output EC per entry
1. CN(Cc1cccc(CN(C)c2ccc(F)cc2)n1)c1ccc(F)cc1 [IIe]
2. COc1cccc(CN(C)Cc2ccc(CN(C)Cc3cccc(OC)c3)cc2)c1 [Ik]

[1000, 10]
